These entries and their values trace back to ChEMBL document CHEMBL1144363.

Please go through the items and note down their pIC50.
Hey, just a heads up that pIC50 is the negative log base 10 of the concentration in molar.

Challenge: Observed pIC50 on Human immunodeficiency virus type 1 reverse transcriptase (Human immunodeficiency virus 1) for "CCCCCCCCCC[N@+]1(C)C[C@@]23c4c5c6c7c8c9c%10c%11c%12c%13c%14c%15c%16c%17c%18c%19c%20c%21c(c2c2c4c4c6c9c6c4c4c2c%21c2c%19c(c%18%14)c9c%13c%10c6c9c24)C2=C4c6c(c-%16c9c%10c6[C@H]([C@@H]5C7=C%10[C@]5(C[N+](C)(C)C[C@]8%115)[C@H]9[C@H]%15%12)[C@@]43C1)[C@@H]%17[C@H]2%20" , please.
Response given: 5.89

Challenge: Observed pIC50 on Human immunodeficiency virus type 1 reverse transcriptase (Human immunodeficiency virus 1) for "C[N+]1(C)C[C@]23c4c5c6c7c8c9c%10c%11c%12c%13c%14c%15c%16c%17c%18c%19c%20c%21c(c2c2c4c4c6c9c6c4c4c2c%21c2c(c%16%20)c%15c9c%13c%10c6c9c24)[C@@H]%19[C@H]2c4c6c9c%10c(c4-%18)[C@@H]%17[C@@H]%14C%12=C%10[C@]4(C[N+](C)(C)C[C@@]8%114)[C@H]9[C@@H]7C5=C6[C@]23C1" , please.
Response given: 5.77

Challenge: Observed pIC50 on Human immunodeficiency virus type 1 reverse transcriptase (Human immunodeficiency virus 1) for "O=C(O)C1(C(=O)O)[C@]23c4c5c6c7c8c9c%10c%11c%12c%13c%14c%15c%16c%17c%18c%19c%20c(c2c2c4c4c6c6c8c%10c8c%12c%10c%14c(c%15%19)c%12c%20c2c2c4c6c8c%10c%122)[C@@H]%18[C@H]2c4c6c8c%10c(c4-%17)[C@@H]%16[C@H]%13[C@@]%114C(C(=O)O)(C(=O)O)[C@]%104C=9[C@H]8[C@@H]7C5=C6[C@@]213" , please.
Response given: 5.92

Challenge: Observed pIC50 on Human immunodeficiency virus type 1 reverse transcriptase (Human immunodeficiency virus 1) for "C[N+]1(C)C[C@@]23C4=C5C6=C7c8c9c%10c%11c%12c%13c%14c%15c%16c%17c%18c%19c%20c%21c%22c%23c%24c%25c%26c%27c(c(c8c8c%10c%13c(c%278)c8c%14c%17c(c%24c%22%18)c%268)[C@@]72C1)[C@H]%25[C@@H]3C=%23[C@@H]4[C@H]%21c1c5c2c3c(c1-%20)[C@H]([C@H]%19%16)[C@@]1(C[N+](C)(C)C[C@]%12%151)C3=C%11[C@H]9[C@H]62" , please.
Response given: 5.80

Challenge: Observed pIC50 on Human immunodeficiency virus type 1 reverse transcriptase (Human immunodeficiency virus 1) for "C[N+]1(C)C[C@]23c4c5c6c7c8c9c%10c%11c%12c%13c%14c%15c%16c%17c%18c%19c%20c(c2c2c4c4c6c6c8c%10c8c%12c%10c%14c(c%15%19)c%12c%20c2c2c4c6c8c%10c%122)[C@@H]%18[C@H]2c4c6c8c%10c(c4-%17)[C@@H]%16[C@H]%13[C@@]%114C[N+](C)(C)C[C@]%104C=9[C@H]8[C@@H]7C5=C6[C@]23C1" , please.
Response given: 5.85

Challenge: Observed pIC50 on Human immunodeficiency virus type 1 reverse transcriptase (Human immunodeficiency virus 1) for "O=C(O)CN1C[C@@]23C4=C5c6c7c8c9c(c%10c%11c%12c%13c%14c%15c%16c%17c%18c%19c%20c%21c%22c%23c(c6c6c8c8c%24c9c%11c9c(c%16%12)c%17c%11c%19c%12c%21c%23c6c8c%12c%11c9%24)[C@@H]5[C@@H]5C=%22[C@H]6c8c(c-%14c(c4c85)[C@@H]2[C@H]%13%10)[C@H]%15[C@@H]%18[C@@H]%206)[C@]73[C@@H]1C(=O)O" , please.
Response given: 6.00
